So I've got a bunch of compounds here, and I need their pIC50 values.
- Tested on: MCF7
- PROTOCOL_TEXT: Cytotoxicity against human MCF7 cells assessed as cell growth inhibition incubated for 72 hrs by MTT assay
- Type: functional, cell-based
- ASSAY_CONDITIONS: MCF7, 72 h
pIC50: −log10 of the molar value.

The compound `COc1cc(-c2nc(N)nc(Nc3ccc(C)cc3)n2)cc(OC)c1OC` showed pIC50 equal to < 4.70

The compound `CN(C)c1ccc(-c2nc(N)nc(Nc3ccccc3F)n2)cc1` showed pIC50 equal to < 4.70

----------
So I've got a bunch of compounds here, and I need their pIC50 values.
- System: MCF7
- PROTOCOL_TEXT: Anticancer activity against human MCF7 cells
- Format: functional, cell-based
For clarity, pIC50 is expressed as the negative log10 of concentration in mol/L.

The compound `Cc1cc(C)n(-c2nc(Nc3ccc(Br)cc3)nc(N3CCOCC3)n2)n1` showed pIC50 equal to 5.34

The compound `COc1ccc(Nc2nc(N3CCOCC3)nc(-n3nc(C)cc3C)n2)cc1` showed pIC50 equal to 5.53

The compound `CCN(CC)c1nc(Nc2ccccc2)nc(Nc2ccc(S(=O)(=O)NC(=N)N)cc2)n1` showed pIC50 equal to 4.76

The compound `CCN(CC)c1nc(Nc2ccc(S(=O)(=O)NC(=N)N)cc2)nc(NC2CCCCC2)n1` showed pIC50 equal to 4.74

The compound CC1=NN(c2nc(Nc3ccc(Cl)cc3)nc(-n3nc(C)cc3C)n2)C(C)C1 (stereo not drawn) showed pIC50 equal to 5.64

The compound CC1=NN(c2nc(Nc3ccc(Br)cc3)nc(-n3nc(C)cc3C)n2)C(C)C1 (stereo not drawn) showed pIC50 equal to 5.58

The compound `COc1ccc(Nc2nc(N3CCCC3)nc(-n3nc(C)cc3C)n2)cc1` showed pIC50 equal to 5.42
